- Assay name: Plasma pharmacokinetics of Halofuginone hydrobromide in Beagle dogs (Example C)
- Measurement parameters: male, Beagle, dog, in vivo, sc, 0.03 mg/kg, Mean Conc. (plasma)
Structures can show the parent of a compound that is named as a salt.
Measure name: concentration at 2 h (ng/mL)
Field format: number, assumed ng/mL, no unit text.

Task: Consider the compound O=C(C[C@@H]1NCCC[C@H]1O)Cn1cnc2cc(Br)c(Cl)cc2c1=O [Halofuginone hydrobromide] and give its measured concentration at 2 h.
Output: 1.4

====

- Assay name: Plasma pharmacokinetics of Halofuginone hydrobromide in Beagle dogs (Example C)
- Measurement parameters: male, Beagle, dog, in vivo, po, 0.15 mg/kg, Mean Conc. (plasma)
Counter-ions that a name gives are not always drawn.
Measure name: concentration at 24 h (ng/mL)
Field format: number, assumed ng/mL, no unit text.

Task: Consider the compound O=C(C[C@@H]1NCCC[C@H]1O)Cn1cnc2cc(Br)c(Cl)cc2c1=O [Halofuginone hydrobromide] and give its measured concentration at 24 h.
Output: 0.53

// provenance: patent US20150086627A1
